tested on: gene editing with dCas9; experiment: Screen of 322 new SSAP proteins, gene editing activity with dCas9 (Table 5); format: cell-based; conditions: normalized
measured.parameter: dCas9 with SSAP activity (normalized)
Numbers only.

Solved entries (count: 3):
Problem: Looking for the measured dCas9 with SSAP activity (normalized) of SSAP_200: SEQ ID NO: 369; Streptomyces (multispecies) (protein, listed as Streptomyces sp.) SQISNALATRDQGPAAQIEQYRDEYAALVPSHVNADQWVRLAVGAVRGDEKLMEAAQNDIGLFLREMKTAARLGLEPGTEQFYLTPRKSKPHGGRKVIKGIVGYQGIVELIYRAGAASTVIVEAVRENDTFRYVPGRDDRPVHEIDWFANDRGPLVGVYAYAVMKDGAVSKVVVLNRSRVMEFKAKSDSKHSEYSPWNTNEEAMWLKSAVRQLAKWVPTSAEYRRDQLLAHTETADSVVASVSTAPLPPQPSALDDADPDDDGPIDAELVD , can you help?
Solution: −1.107

Problem: Looking for the measured dCas9 with SSAP activity (normalized) of SSAP_3: SEQ ID NO: 167; RecT Escherichia coli (protein) MTKQPPIAKADLQKTQGNRAPAAVKNSDVISFINQPSMKEQLAAALPRHMTAERMIRIATTEIRKVPALGNCDTMSFVSAIVQCSQLGLEPGSALGHAYLLPFGNKNEKSGKKNVQLIIGYRGMIDLARRSGQIASLSARVVREGDEFSFEFGLDEKLIHRPGENEDAPVTHVYAVARLKDGGTQFEVMTRKQIELVRSLSKAGNNGPWVTHWEEMAKKTAIRRLFKYLPVSIEIQRAVSMDEKEPLTIDPADSSVLTGEYSVIDNSEE , can you help?
Solution: 0.695

Problem: Looking for the measured dCas9 with SSAP activity (normalized) of SSAP_128: SEQ ID NO: 297; Viridibacillus sp. FSL H8-0123 (protein, listed as Viridibacillus sp.) ATNNALKEQMKQAPSKEVKPEQSLNTLLKRMGPEIQRALPKHMDADRIARIALTAVRNTPKLLDCDQMSFVAALMQSAQLGVEPNTGLGQAYLIPYGKQVQFQLGYKGLIDLAVRSGQYKAIYAHEVYEDDEFSFAYGLHKDLVHVPAPNPTGEPIGYYAVYHLQNGGYDFVYWTRERIDQHAHKFSMAVQKGWTSPWKTNFDAMAKKTVLKEVLKYAPKSIEMQKVVDADETVKTDVSDDMSNVIDVTDYTVMDQEQETIQEPTK , can you help?
Solution: −0.965

Now take the following molecule into account.
Problem: Looking for the measured dCas9 with SSAP activity (normalized) of SSAP_28: SEQ ID NO: 197 (protein) AITPNPIPAQDGSPIPSPDDIVGELARRKIYAGIPDDDVALALALCQKYGFDPLLKHLVLLATKDRDETTGQGQKHYNAYVTRDGLLHVAHTSGMLDGLETIQGKDDLGEWAEAVVYRKDMSRPFRYRVYLSEYVREAKGVWKTHPQAMLTKTAEVFALRRAFDVALTPFEEMGFDNQNIAGDTGPSPKTGFTEKAGFTGNTDFSAEASLPGKARFSTEAGLTDMTVIPPNRVTGSIPETSRLNTSAGSTGRQRRQLF , can you help?
Solution: −0.886
